# STUDY SYSTEM: rα3β4 nAChR (Rattus norvegicus, UniProt P04757+P12392)
# Sequence (P04757 26-499): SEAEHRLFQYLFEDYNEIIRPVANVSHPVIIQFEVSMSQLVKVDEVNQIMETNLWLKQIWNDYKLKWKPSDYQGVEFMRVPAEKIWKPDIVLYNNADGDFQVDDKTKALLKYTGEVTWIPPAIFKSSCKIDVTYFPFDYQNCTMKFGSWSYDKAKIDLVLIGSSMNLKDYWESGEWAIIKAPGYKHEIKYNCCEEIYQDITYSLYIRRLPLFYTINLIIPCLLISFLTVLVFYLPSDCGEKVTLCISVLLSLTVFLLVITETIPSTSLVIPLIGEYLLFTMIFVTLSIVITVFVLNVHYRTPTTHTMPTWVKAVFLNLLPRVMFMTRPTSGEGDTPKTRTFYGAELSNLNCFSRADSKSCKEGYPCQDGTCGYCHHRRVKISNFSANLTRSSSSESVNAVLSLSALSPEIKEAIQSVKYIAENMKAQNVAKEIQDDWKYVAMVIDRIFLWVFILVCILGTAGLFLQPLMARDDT
# Sequence (P12392 22-495 limits assumed): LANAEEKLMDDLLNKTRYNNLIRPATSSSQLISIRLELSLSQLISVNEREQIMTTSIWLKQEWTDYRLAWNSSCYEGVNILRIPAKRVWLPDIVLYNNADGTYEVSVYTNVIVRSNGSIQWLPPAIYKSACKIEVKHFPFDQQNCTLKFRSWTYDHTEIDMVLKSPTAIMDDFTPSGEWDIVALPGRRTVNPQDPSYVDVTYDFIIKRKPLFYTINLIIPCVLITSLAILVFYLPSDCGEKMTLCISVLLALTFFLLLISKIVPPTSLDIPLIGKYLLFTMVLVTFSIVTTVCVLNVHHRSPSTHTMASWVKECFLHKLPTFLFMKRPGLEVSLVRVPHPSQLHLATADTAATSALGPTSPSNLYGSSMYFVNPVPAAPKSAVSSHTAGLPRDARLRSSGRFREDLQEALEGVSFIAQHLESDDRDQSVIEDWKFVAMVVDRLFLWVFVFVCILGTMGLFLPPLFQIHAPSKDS
# METHOD NOTES: cell-based
Positions of bridges follow the written chain, without caps; N, C: chain ends. Residues, ends and D or L forms follow the SMILES beside them.
RECORDED ENDPOINT: IC50

CC[C@H](C)[C@@H]1NC(=O)[C@H](Cc2c[nH]cn2)NC(=O)[C@@H]2CCCN2C(=O)[C@H](CC(N)=O)NC(=O)[C@H](CC(N)=O)NC(=O)[C@H](C(C)C)NC(=O)[C@H](CC(N)=O)NC(=O)[C@@H]2CSSC[C@H](NC(=O)CN)C(=O)N[C@@H](CSSC[C@@H](C(N)=O)NC1=O)C(=O)N[C@@H](CO)C(=O)NCC(=O)N1CCC[C@H]1C(=O)N[C@@H](C)C(=O)N2 [[H5G]RegIIA] (H-GCCSGPACNVNNPHIC-NH2; disulfide 2-8, 3-16): > 10000 nM

# input for lookup
Challenge: Tell me IC50 reported for CC[C@H](C)[C@@H]1NC(=O)[C@H](Cc2c[nH]cn2)NC(=O)[C@@H]2CCCN2C(=O)[C@H](CC(N)=O)NC(=O)[C@H](CC(N)=O)NC(=O)[C@H](C(C)C)NC(=O)[C@H](CC(N)=O)NC(=O)[C@@H]2CSSC[C@H](NC(=O)CN)C(=O)N[C@@H](CSSC[C@@H](C(N)=O)NC1=O)C(=O)N[C@@H](CO)C(=O)N[C@@H](Cc1c[nH]cn1)C(=O)N1CCC[C@H]1C(=O)NCC(=O)N2 [[A7G]RegIIA] (H-GCCSHPGCNVNNPHIC-NH2; disulfide 2-8, 3-16)
Response given: 964 nM
